system: B16 cells; test: Melanotic melanoma test, i.p. inoculated B16 melanoma; format: in vivo, BDF1 mice; conditions: B16, i.p. days 1, 5 and 9
# Lookup of reported Maximal Effective Dose keyed by entry

compound: NC1CCCCC1N.O.O.O=C([O-])CN(CCO)CC(=O)[O-].[Pt+2] [Compound 39]
units: mg/kg
Maximal Effective Dose: 25

compound: CN(CC(=O)[O-])CC(=O)[O-].N[C@@H]1CCCC[C@H]1N.[Pt+2] [Identifier No. 11a, mono-N--methyliminodiacetato]
units: mg/kg
Maximal Effective Dose: 25

compound: NC1CCCCC1N.O=C([O-])CN(CC(=O)[O-])Cc1ccccc1.[Pt+2] [Compound 38, N--Benzyliminodiacetato(DACH)Pt(II)]
units: mg/kg
Maximal Effective Dose: 12.5

compound: NC1CCCCC1N.O.O.O=C([O-])CN(CC(=O)[O-])c1ccccc1.[Pt+2] [Compound 37]
units: mg/kg
Maximal Effective Dose: 25

compound: N.N.[Cl][Pt][Cl] [DDP, diamminedichloroplatinum II, reference compound]
units: mg/kg
Maximal Effective Dose: 5

compound: CN(CC(=O)[O-])CC(=O)[O-].NC1CCCCC1N.O.[Pt+2] [Compound 28]
units: mg/kg
Maximal Effective Dose: 25

compound: N[C@@H]1CCCC[C@H]1N.O=C([O-])CN(CCO)CC(=O)[O-].[Pt+2] [Identifier No. 12a, mono-N--hydroxyethyliminodiacetato]
units: mg/kg
Maximal Effective Dose: 25

----------
# Lookup of reported % T/C keyed by entry
system: L1210 cells; experiment: In vivo anti-tumor activity, L1210, single i.p. injection; parameters: species or system BDF1 mice; conditions: single i.p., 50 mg/kg
parameter: % T/C (%)

compound: NC1CCCCC1N.O=C1OC(C(O)CO)C([O-])=C1O.O=C1OC(C(O)CO)C([O-])=C1O.[Pt+2] (mixture of isomers) [Compound 7, cis-bis-isoascorbato(DACH)Pt(II).3H2 O]
parameter: % T/C
value.observed: 136
--
compound: NC1CCCCC1N.NCC(=O)[O-].NCC(=O)[O-].O.[Pt+2] (stereo not drawn) [Compound 32, Cis-bis-glycinato(DACH)Pt(II).1H2 O]
parameter: % T/C
value.observed: 158
--
compound: NC1CCCCC1N.O=C([O-])CN(CCO)CCO.O=C([O-])CN(CCO)CCO.[Pt+2] [Compound 34, Cis-bis-bicinato(DACH)Pt(II)]
parameter: % T/C
value.observed: 160
--
compound: NC1CCCCC1N.O.O=C([O-])C1CC1.O=C([O-])C1CC1.[Pt+2] (stereo not shown)
parameter: % T/C
value.observed: 199
--
compound: NC1CCCCC1N.O.O=C([O-])C1CCC1.O=C([O-])C1CCC1.[Pt+2] (stereo not shown)
parameter: % T/C
value.observed: 145

----------
test system: Male albino mice; experiment: Acute toxicity, single intraperitoneal injection (Example 19); assay type: in vivo; details: single i.p., 14 days
# Lookup of reported Calculated LD10 keyed by entry

molecule: NC1CCCCC1N.O.O=C1OC(C(O)CO)C([O-])=C1O.O=C1OC(C(O)CO)C([O-])=C1O.[Pt+2] (stereo not drawn) [Compound 3, cis-bis-ascorbato(DACH)Pt(II).1H2 O]
units: mg/kg
Calculated LD10: 108
//
molecule: O.O.O=C([O-])C[N-]CC(=O)O.[NH-]C1CCCCC1[NH-].[Pt]
units: mg/kg
Calculated LD10: 80
//
molecule: N[C@H]1CCCC[C@@H]1N.O=C1O[C@H]([C@@H](O)CO)C([O-])=C1O.O=C1O[C@H]([C@@H](O)CO)C([O-])=C1O.[Pt+2]
units: mg/kg
Calculated LD10: 70
//
molecule: NC1CCCCC1N.O=C1O[C@H]([C@@H](O)C(=O)[O-])[C@H](O)[C@H]1O.O=C1O[C@H]([C@@H](O)C(=O)[O-])[C@H](O)[C@H]1O.[Pt+2]
units: mg/kg
Calculated LD10: 100
